- Method Description: Plasma concentration in Balb-C mouse at 2 mg/kg, iv administered as bolus dose measured after 10.1 mins by LC-MS analysis
- Format: ADME, organism-based
Parameter: concentration at 0.168333 h (ng/mL)

INSERT INTO assay_data (chemical_structure, experimental_value) VALUES
  ('N#C/N=C(/NCc1cccnc1)NCC12CC3CC(CC(C3)C1)C2', 332);

---

- Method Description: Terminal elimination rate constant in Balb-C mouse at 2 mg/kg, iv administered as bolus dose by LC-MS method
- Assay type: ADME, organism-based
- Test Settings: in vivo, read-out: LZ (converted)
Parameter: k el (s⁻¹)

INSERT INTO assay_data (chemical_structure, parameter, experimental_value) VALUES
  ('N#C/N=C(/NCc1cccnc1)NCC12CC3CC(CC(C3)C1)C2', 'k el', 0.000886);

---

- Method Description: Plasma concentration in Balb-C mouse at 2 mg/kg, iv administered as bolus dose measured after 58 mins by LC-MS analysis
- Type: ADME, organism-based
Parameter: concentration at 58 min

INSERT INTO results (chemical_structure, experimental_value) VALUES
  ('N#C/N=C(/NCc1cccnc1)NCC12CC3CC(CC(C3)C1)C2', '52 ng/mL');

---

- Assay Target: P2X purinoceptor 7 (Homo sapiens, UniProt Q99572)
- Sequence (Q99572 whole entry): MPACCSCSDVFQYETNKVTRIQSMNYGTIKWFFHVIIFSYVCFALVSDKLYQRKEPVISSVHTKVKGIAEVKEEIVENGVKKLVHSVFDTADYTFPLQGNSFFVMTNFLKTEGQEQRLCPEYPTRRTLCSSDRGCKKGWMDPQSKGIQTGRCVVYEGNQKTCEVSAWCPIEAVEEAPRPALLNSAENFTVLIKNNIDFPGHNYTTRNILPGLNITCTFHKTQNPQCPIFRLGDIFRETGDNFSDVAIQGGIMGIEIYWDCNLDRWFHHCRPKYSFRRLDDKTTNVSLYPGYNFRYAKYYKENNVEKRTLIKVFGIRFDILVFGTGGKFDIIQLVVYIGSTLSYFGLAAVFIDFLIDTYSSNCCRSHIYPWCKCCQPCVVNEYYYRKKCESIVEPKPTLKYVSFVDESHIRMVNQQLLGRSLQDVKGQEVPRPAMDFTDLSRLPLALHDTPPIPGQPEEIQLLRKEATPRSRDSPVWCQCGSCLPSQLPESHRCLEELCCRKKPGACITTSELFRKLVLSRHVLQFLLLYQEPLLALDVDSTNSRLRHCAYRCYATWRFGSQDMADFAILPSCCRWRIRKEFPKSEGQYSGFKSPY
- Method Description: Antagonist activity at P2X7 receptor in human THP1 cells assessed as inhibition of BzATP-induced YO-PRO-1 Iodide uptake measured every 30 secs for 1 hr by fluorescence assay
- Type: cell-based
pIC50: −log10 of the molar value.
Quick list: pIC50 per entry.
Parameter: pIC50

INSERT INTO measurements (chemical_structure, parameter, relation_operator, experimental_value) VALUES
  ('N#C/N=C(/NCCc1ccccc1)NC12CC3CC(CC(C3)C1)C2', 'pIC50', '<', 5.00),
  ('N#C/N=C(\NCC12CC3CC(CC(C3)C1)C2)Nc1ccccn1', 'pIC50', '<', 5.00),
  ('N#C/N=C(\NCCC12CC3CC(CC(C3)C1)C2)Nc1ccccc1', 'pIC50', '<', 5.00),
  ('COc1ccc(N/C(=N/C#N)NCC23CC4CC(CC(C4)C2)C3)cc1', 'pIC50', '=', 6.25),
  ('N#C/N=C(/NCc1ccccc1)NCC12CC3CC(CC(C3)C1)C2', 'pIC50', '=', 6.39),
  ('N#C/N=C(/NCc1ccccc1F)NCC12CC3CC(CC(C3)C1)C2', 'pIC50', '=', 6.30);
